- experiment: NCI Yeast Anticancer Drug Screen. Data for the mec2-1 strain (AID 157)
- test.parameters: S. cerevisiae mec2-1 strain, stronger effect = higher value; at 50.0 µM unless noted
This is part of a sample that, as a whole, favours compounds with a hit. Of some 79,000 tested, about 15% had one in any assay.
measure: growth inhibition (%)

>  <molecule>
N#C/C(=C\c1ccccc1)c1ccc(F)cc1

>  <observed>
42.1

$$$$
>  <molecule>
O=I(=O)c1ccccc1

>  <observed>
9.7

$$$$
>  <molecule>
COc1ccc2c(c1)[n+](=O)c(C(=O)C/C(=N\NC(=O)C[N+](C)(C)C)C(=O)Nc1cc(Cl)ccc1Cl)c(C)n2O

>  <observed>
-12.7

$$$$
>  <molecule>
CCOc1ccc2nc(NC(=O)C(=O)C(c3cnc4ccccc4n3)[N+](=O)[O-])sc2c1 (centres undefined)

>  <observed>
-13.4

$$$$
>  <molecule>
O=C(Nc1ccc(Cl)cc1)NC1OC(=O)C(Cl)=C1Cl (centres undefined)

>  <observed>
9.3

$$$$
>  <molecule>
COCCN=Cc1ccc(N(C)C)cc1

>  <observed>
-4.8

$$$$
>  <molecule>
CC(Br)CCCBr (centres undefined)

>  <observed>
-5.65

$$$$
>  <molecule>
Oc1cc(Cl)cc2cccnc12

>  <observed>
91.5

$$$$
>  <molecule>
CCOC(=O)C(c1ccc2c(c1)OCO2)C1(NC(=O)c2ccccc2)C(=O)C(C(=O)OC)C(=O)C1C(=O)OC (centres undefined)

>  <observed>
6.15

$$$$
>  <molecule>
O=C(O)c1ccccc1C(=O)Nn1cnnc1

>  <observed>
1.15

$$$$
>  <molecule>
Cc1[nH]nc2c1C(=O)C=C(N(CCO)c1ccccc1)C2=O

>  <observed>
5.35

$$$$
>  <molecule>
O=c1oc(-c2ccc([N+](=O)[O-])cc2)nc2cc(Cl)ccc12

>  <observed>
9.15

$$$$
>  <molecule>
C=C1CC[C@](C)(O)[C@@]2(C)CC[C@H]3C(=C(C)C)C(=O)C[C@]3(C)C[C@H]12

>  <observed>
5.45

$$$$
>  <molecule>
C1=C(c2ccccc2)N(C2CCCCC2)C(c2ccccc2)=CN1Cc1ccccc1

>  <observed>
31.9

$$$$
>  <molecule>
CC(=O)OCC(O)CS(=O)c1ccc(C)cc1 (centres undefined)

>  <observed>
2

$$$$
>  <molecule>
Cc1ccc(C(=O)NNC(=O)c2ccc(C)cc2)cc1

>  <observed>
-18.4

$$$$
>  <molecule>
Cc1cc(C(=O)O)cc(C)c1N(C)C=O

>  <observed>
6.25

$$$$
>  <molecule>
CC1CC(=O)CC(C)(C)N1 (centres undefined)

>  <observed>
-9

$$$$
>  <molecule>
CN(C)c1ccc(/C=C/C(=O)N[C@@H]2C(=O)N3[C@@H]2SC(C)(C)[C@@H]3C(=O)O)cc1

>  <observed>
-10.8

$$$$
>  <molecule>
Cc1ccccc1N=C(N)N

>  <observed>
2.5

$$$$
>  <molecule>
CCOC(=O)c1nnsc1N/N=C\c1ccc([N+](=O)[O-])cc1

>  <observed>
-15

$$$$
>  <molecule>
CCOP(=O)(C/C(=N/NC(C)(C)C)C(=O)Nc1nc2ccc(C)cc2s1)OCC

>  <observed>
3.7

$$$$
>  <molecule>
CS/C(=N\c1nccs1)NC(=O)c1cccc(Cl)c1

>  <observed>
20.4

$$$$
>  <molecule>
CC1=C(N2CCOCC2)C(N2CCOCC2)C(C)C1=O (centres undefined)

>  <observed>
-5.25

$$$$

* * *

- experiment: NCI Yeast Anticancer Drug Screen. Data for the bub3 strain (AID 167)
- test.parameters: S. cerevisiae bub3 mutant strain, stronger effect = higher value; at 50.0 µM unless noted
Compounds without any hit were thinned out: in the full panel of roughly 79,000, 15% have a hit.
# growth inhibition per entry

>  <compound>
O=C(NC(NC(=O)c1ccccc1)c1ccccc1)c1ccccc1

>  <unit.of.measure>
%

>  <growth inhibition>
8.55

$$$$
>  <compound>
Fc1ccc2c(c1)-c1ccccc1C2

>  <unit.of.measure>
%

>  <growth inhibition>
-0.95

$$$$
>  <compound>
Cc1ccc2sccc(=O)c2c1

>  <unit.of.measure>
%

>  <growth inhibition>
-5.95

$$$$
>  <compound>
CC1=NN(C(=O)Cc2ccccc2)C(=O)/C1=C\C=C\c1ccccc1

>  <unit.of.measure>
%

>  <growth inhibition>
-15.2

$$$$
>  <compound>
c1ccc(-n2ncn[n+]2-c2ccccc2)cc1

>  <unit.of.measure>
%

>  <growth inhibition>
32.8

$$$$
>  <compound>
N#Cc1ccc(Nc2cnc3cc(N)ccc3n2)cc1

>  <unit.of.measure>
%

>  <growth inhibition>
12.8

$$$$
>  <compound>
OC1(c2cccnc2)c2ccccc2Oc2ccccc21

>  <unit.of.measure>
%

>  <growth inhibition>
-3.7

$$$$
>  <compound>
O=C(/C(=C/c1ccccc1)c1ccccc1)N1c2ccccc2CC1c1c[nH]c2ccccc12 (configuration not stated)

>  <unit.of.measure>
%

>  <growth inhibition>
3.3

$$$$
>  <compound>
CCCCNC(=O)c1cc(=O)[nH]c(=O)[nH]1

>  <unit.of.measure>
%

>  <growth inhibition>
-16.1

$$$$
>  <compound>
COc1ccccc1NC(=O)C1=C(C)NC(C)=C(C(=O)Nc2ccccc2OC)C1c1ccccc1F

>  <unit.of.measure>
%

>  <growth inhibition>
-1.05

$$$$
>  <compound>
O=C(Nc1cccc2ccccc12)c1ccc(Cl)cc1Cl

>  <unit.of.measure>
%

>  <growth inhibition>
8.55

$$$$
>  <compound>
COC1COCOC1C(OC)C1OCOCC1OC (configuration not stated)

>  <unit.of.measure>
%

>  <growth inhibition>
-4.25

$$$$
>  <compound>
CC1(C)Oc2ccccc2OC1O (configuration not stated)

>  <unit.of.measure>
%

>  <growth inhibition>
-10.2

$$$$
>  <compound>
COc1ccccc1OC(=O)c1ccccc1

>  <unit.of.measure>
%

>  <growth inhibition>
11.5

$$$$
>  <compound>
Cc1ccc(O)cc1N(C)C

>  <unit.of.measure>
%

>  <growth inhibition>
-6.25

$$$$
>  <compound>
COC(=O)NCC1OCC2OC(C)(C)OC12 (configuration not stated)

>  <unit.of.measure>
%

>  <growth inhibition>
14.8

$$$$
>  <compound>
COC1=CC(=O)c2cc3ccc(OC)c(N)c3nc2C1=O

>  <unit.of.measure>
%

>  <growth inhibition>
13.3

$$$$
>  <compound>
Cc1cc(C(=O)O)cc(C)c1N(C)C=O

>  <unit.of.measure>
%

>  <growth inhibition>
-1.05

$$$$
>  <compound>
O=C(c1ccccc1)c1cccc(C(=O)c2ccccc2)c1

>  <unit.of.measure>
%

>  <growth inhibition>
7.35

$$$$
>  <compound>
Cc1cc(N)ccc1-c1cc(C)c(N)c(C)c1C

>  <unit.of.measure>
%

>  <growth inhibition>
-18.7

$$$$
>  <compound>
Cn1cnc2[nH]c(=O)[nH]c(=O)c21

>  <unit.of.measure>
%

>  <growth inhibition>
8.85

$$$$
>  <compound>
CC1(CO)C2CCC(CC2)C1CO (configuration not stated)

>  <unit.of.measure>
%

>  <growth inhibition>
-5.1

$$$$
>  <compound>
CC1(C)SCc2nc3ccccc3n21

>  <unit.of.measure>
%

>  <growth inhibition>
19.1

$$$$
>  <compound>
O=S(=O)(/C(=C\c1ccccc1)c1ccccc1)c1ccccc1

>  <unit.of.measure>
%

>  <growth inhibition>
-4.5

$$$$
>  <compound>
CN(C)C(=S)/N=c1\ssc(=S)n1Cc1cccnc1

>  <unit.of.measure>
%

>  <growth inhibition>
-13.7

$$$$
>  <compound>
N#CCCC(C#N)(CCC#N)C(N)=O

>  <unit.of.measure>
%

>  <growth inhibition>
5.2

$$$$
>  <compound>
CC1(C)CCC(CC(=O)O)(CC(=O)O)CC1

>  <unit.of.measure>
%

>  <growth inhibition>
-2.9

$$$$

* * *

- experiment: NCI Yeast Anticancer Drug Screen. Data for the mlh1 rad18 strain (AID 175)
- test.parameters: S. cerevisiae mlh1 rad18 strain growth inhibition, stronger effect = higher value; at 50.0 µM unless noted
This is part of a sample that, as a whole, favours compounds with a hit. Of some 79,000 tested, about 15% had one in any assay.
# growth inhibition per entry

>  <compound>
Cc1ccc(S(=O)(=O)OC2CSS(=O)CC2OS(=O)(=O)c2ccc(C)cc2)cc1 (stereo unspecified)

>  <growth inhibition [%]>
21.1

$$$$
>  <compound>
O=C(NCc1ccccc1)c1n[nH][nH]c1=O

>  <growth inhibition [%]>
20.6

$$$$
>  <compound>
CCC(=O)Nc1ccccc1Cl

>  <growth inhibition [%]>
4.95

$$$$
>  <compound>
CCOC(=O)COc1ccc(OC)c2c1C(=O)CCC2

>  <growth inhibition [%]>
15

$$$$
>  <compound>
S=c1[nH]nc(-c2n[nH]c3ccccc23)o1

>  <growth inhibition [%]>
1.25

$$$$
>  <compound>
COC(=O)C(Cc1ccccc1)C(=O)C(CC(=O)OC(C)(C)C)NC(=O)OC(C)(C)C (stereo unspecified)

>  <growth inhibition [%]>
-27.5

$$$$
>  <compound>
CCCC1([N+](=O)[O-])c2ccccc2-c2ccc([N+](=O)[O-])cc21 (stereo unspecified)

>  <growth inhibition [%]>
49.7

$$$$
>  <compound>
N#Cc1c(-c2ccccc2)[nH]c2ccccc2c1=O

>  <growth inhibition [%]>
-17.5

$$$$
>  <compound>
O=[N+]([O-])c1ccc(S/N=C\c2ccccc2)c([N+](=O)[O-])c1

>  <growth inhibition [%]>
8.55

$$$$
>  <compound>
COC(=O)C(Br)C(Br)c1cc(OC)c(OC)c(OC)c1 (stereo unspecified)

>  <growth inhibition [%]>
14.2

$$$$
>  <compound>
Cc1ccc(C(=O)O)c(/C=C2\Cc3cc(C)cc(C)c3C2=O)c1

>  <growth inhibition [%]>
29.7

$$$$
